Hi there, I'd appreciate the recorded IC50 for every entry that follows.
- Target Of Assay: NMDAR1C - NMDAR2B (Rattus norvegicus, UniProt P35439+Q00960)
- Construct: expressed in transfected cells; host or cells: Xenopus laevis oocytes injected with in vitro transcribed mRNA (1:1 mixture)
- Sequence (Q00960 27-1482, other chains not shown): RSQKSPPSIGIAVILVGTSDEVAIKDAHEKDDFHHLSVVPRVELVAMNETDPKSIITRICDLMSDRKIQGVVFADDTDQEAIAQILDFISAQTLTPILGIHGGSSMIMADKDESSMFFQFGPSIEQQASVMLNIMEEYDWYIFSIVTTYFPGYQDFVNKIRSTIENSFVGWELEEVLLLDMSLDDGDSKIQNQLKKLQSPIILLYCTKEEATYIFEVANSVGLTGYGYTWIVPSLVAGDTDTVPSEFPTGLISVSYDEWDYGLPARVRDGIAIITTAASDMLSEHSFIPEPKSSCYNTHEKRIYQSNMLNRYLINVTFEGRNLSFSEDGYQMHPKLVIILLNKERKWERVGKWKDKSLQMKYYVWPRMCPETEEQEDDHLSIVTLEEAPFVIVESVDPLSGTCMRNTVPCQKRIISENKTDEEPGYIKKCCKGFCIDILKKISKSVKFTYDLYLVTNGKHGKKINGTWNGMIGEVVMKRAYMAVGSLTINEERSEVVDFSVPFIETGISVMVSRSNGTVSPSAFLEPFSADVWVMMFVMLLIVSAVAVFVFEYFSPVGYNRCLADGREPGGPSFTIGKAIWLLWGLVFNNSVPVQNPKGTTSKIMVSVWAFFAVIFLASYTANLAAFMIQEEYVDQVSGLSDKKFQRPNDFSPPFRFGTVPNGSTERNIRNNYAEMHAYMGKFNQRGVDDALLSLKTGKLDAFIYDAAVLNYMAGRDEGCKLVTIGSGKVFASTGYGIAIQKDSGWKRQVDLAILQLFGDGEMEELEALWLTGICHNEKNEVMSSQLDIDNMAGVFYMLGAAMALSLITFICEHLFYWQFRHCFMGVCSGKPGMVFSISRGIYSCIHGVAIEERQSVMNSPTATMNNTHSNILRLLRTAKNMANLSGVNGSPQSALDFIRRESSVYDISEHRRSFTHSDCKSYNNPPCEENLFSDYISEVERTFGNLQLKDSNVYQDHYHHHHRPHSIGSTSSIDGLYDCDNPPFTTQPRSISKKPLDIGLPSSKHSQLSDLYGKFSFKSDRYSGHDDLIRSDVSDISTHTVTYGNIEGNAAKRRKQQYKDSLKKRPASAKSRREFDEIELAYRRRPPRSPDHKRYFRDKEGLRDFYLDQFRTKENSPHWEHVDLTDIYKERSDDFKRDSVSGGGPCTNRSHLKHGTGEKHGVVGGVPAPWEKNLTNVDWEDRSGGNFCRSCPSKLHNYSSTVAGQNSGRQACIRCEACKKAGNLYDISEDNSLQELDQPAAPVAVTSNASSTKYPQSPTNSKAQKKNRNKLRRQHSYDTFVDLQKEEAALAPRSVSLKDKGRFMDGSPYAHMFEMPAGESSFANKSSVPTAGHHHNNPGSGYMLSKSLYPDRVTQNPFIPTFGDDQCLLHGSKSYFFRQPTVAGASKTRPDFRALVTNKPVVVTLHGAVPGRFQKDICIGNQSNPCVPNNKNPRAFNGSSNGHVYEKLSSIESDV
- Assay Comment: Electrophysiology on recombinant NMDA receptors expressed in oocytes
- Type: cell-based
- Condition Parameters: Xenopus laevis oocytes, voltage clamp -80 mV; 15 µM Asp plus 0.2 µM Gly; read-out: Electrophysiology/IC50 (µM) oocytes NMDAR 1C & 2B
- Excerpt: Electrophysiology on recombinant NMDA receptors. cDNA clones coding for the subunits NMDAR1C and NMDAR2A of the NMDA receptor (see Hollmann and Heinemann, 1994, Annu. Rev. Neurosci. 17: 31 for nomenclature of NMDA receptor subunits) were isolated from a rat brain λgt11 cDNA library as published elsewhere (Sigel et al., 1994, J. Biol. Chem. 269:8204). […] Figures for the IC50 in all other cases are arithmetic mean values of individual IC50s determined by the logistic curve fits.
Report the value in µM with no unit label.

Give recorded IC50. CN1CCc2cc(O)c(O)cc2C1CCc1ccc(Cl)cc1 (centres unmarked)
0.28

Give recorded IC50. COc1cc2c(cc1OC)C(CC(O)c1ccc(Cl)cc1)N(C)CC2 (single isomer, unassigned)
0.043

Give recorded IC50. COc1cc2c(cc1OC)C(CC(OC(C)=O)c1ccc(Cl)cc1)N(C)CC2 (centres unmarked)
1.2
